# assay system: Albumin (Bos taurus) (UniProt P02769)
# Sequence (P02769 whole entry, looked up): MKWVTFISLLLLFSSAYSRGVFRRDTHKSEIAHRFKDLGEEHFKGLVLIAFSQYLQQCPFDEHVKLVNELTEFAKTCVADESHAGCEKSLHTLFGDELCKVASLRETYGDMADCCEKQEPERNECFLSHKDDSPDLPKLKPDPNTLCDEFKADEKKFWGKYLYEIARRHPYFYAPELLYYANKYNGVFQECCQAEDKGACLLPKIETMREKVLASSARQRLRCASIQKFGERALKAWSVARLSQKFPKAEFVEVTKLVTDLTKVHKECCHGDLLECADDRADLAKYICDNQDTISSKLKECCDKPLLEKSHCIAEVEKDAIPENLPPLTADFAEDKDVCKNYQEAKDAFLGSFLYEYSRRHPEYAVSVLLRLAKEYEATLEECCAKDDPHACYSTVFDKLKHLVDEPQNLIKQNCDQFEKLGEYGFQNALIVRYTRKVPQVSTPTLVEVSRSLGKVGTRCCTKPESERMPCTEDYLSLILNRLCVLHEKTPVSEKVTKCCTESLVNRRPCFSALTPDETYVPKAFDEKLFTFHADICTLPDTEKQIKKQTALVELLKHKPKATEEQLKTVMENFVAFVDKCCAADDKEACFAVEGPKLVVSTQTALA
# assay explanation: bovine serum albumin binders on microarray, profiling panel, artefact control for SMM control protein annotation, biochemical, small-molecule microarray, Alexa647 label, 635/667 nm fluorescence (AID 1118);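 further: score merges 667 nm emission intensity and signal-to-noise per printed compound spot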
# stated conditions: BSA-A647 binding, fluorescence 635 nm, higher = more signal
Decide by composite z-score: equal to or exceeding 0.4 means met, less means not met.

Reference set, count: 10
1) O=c1cccc(-c2ccc(C(F)(F)F)cc2)o1
not met
2) O=C1c2ccccc2[C@@]2(Cc3ccccc3N(C3CC3)C2=O)[C@H](c2ccc(CO)cc2)N1C1CCCCC1
met
3) COc1ccc([Si](C)(C)[C@H]2[C@H](CCn3cc(CCO)nn3)O[C@@]3(C(=O)N(Cc4ccc(N5C(=O)c6cccc7cccc5c67)cc4)c4ccccc43)[C@@H]2C)cc1
met
4) CC(C)C[C@@H]1NC(=O)[C@H]2C[C@@H](C(=O)NCCCCCC[N+](C)(C)C)[C@@H](c3cccc(OCCO)c3)N2C1=O
not met
5) Cc1ccc(S[C@]2(C(=O)NCc3ccccc3)CC(=O)N(C(C)C)[C@@H]2c2ccc(CO)cc2I)cc1
met
6) NC(=O)NCC#Cc1ccc2c(c1)[C@]1(C(=O)N2)[C@H](C(=O)O)[C@H]2C(=O)O[C@H](c3ccccc3)[C@H](c3ccccc3)N2[C@@H]1c1ccccc1OCCO
met
7) COc1ccc(NN2C(C(O)c3ccccn3)C=CC3C(=O)N(C4CCCCC4)C(=O)C32)cc1 (stereo not given)
met
8) CC(=O)NCCCC[C@@H]1NC(=O)[C@@H]2C[C@H](C(=O)O)[C@H](c3ccc(O)cc3)N2C1=O
not met
9) COCCOC(=O)N1C(=O)[C@@]2(c3cc(C#Cc4ccc(OC)cc4)ccc31)[C@H](C(=O)N1CCN(c3ncccn3)CC1)[C@H]1C(=O)O[C@H](c3ccccc3)[C@H](c3ccccc3)N1[C@@H]2c1ccccc1OCCO
not met
10) O=C1C[C@@](C(=O)NCC(F)(F)F)(c2ccc([N+](=O)[O-])cc2)[C@@H](c2ccc(CO)cc2)N1C1CCCCC1
met

Please check the record NC(N)=NCc1cn(CCc2c[nH]c3ccccc23)nn1 and state if its composite z-score is at or above 0.4.
met

Can C=CC[C@@H](OC(=O)Nc1ccc(OC)cc1)c1ccc(OCCO)cc1 be said to have composite z-score at or above 0.4?
not met

API: above_or_equal(metric=composite z-score, cutoff=0.4) for item COC(=O)C1(Cc2ccccc2)C=C2C(=C(C(C)C)C(=O)C2C)CN1 (stereo not given)
met

Answer whether composite z-score of NC(=O)N1C(=O)C2C(C1=O)C1C=C(c3ccc(CO)cc3)C2C(C2CC2)N1Cc1sc2ccccc2c1Cl (stereo not given) is greater than or equal to 0.4.
met

Could you tell me if the measured composite z-score of [N-]=[N+]=Nc1ccccc1[C@H]1OC(c2ccc(OCCCO)cc2)=N[C@@]1(CCS(=O)(=O)c1ccccc1)C(=O)N1CCCCC1 reaches 0.4 or more?
met

Can Cc1ccc(S[C@]2(C(=O)NCC(F)(F)F)CC(=O)N(Cc3ccccc3)[C@@H]2c2ccc(CO)cc2)cc1 be said to have composite z-score at or above 0.4?
not met

From: PubChem BioAssay
